Property: Percent Control; scope: individual molecules
System: PLK4
Stated Conditions: Compound Concentration (nM):1000;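 also: KINOMEscan scanMAX binding as percent activity remaining versus control; lower means stronger binding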

| Molecule | Percent Control (%) |
| --- | --- |
| COc1ccc(COc2ccc(Cc3cnc(N)nc3N)cc2OC)cc1 [GW632580X] | 72 |
| COc1ccc2[nH]c3c4[nH]c5ccc(OC)cc5c4c4c(c3c2c1)C(=O)NC4=O [GW296115X] | 1.4 |
| O=C(Nc1n[nH]c2nc(-c3ccc(O)cc3)c(Br)cc12)C1CC1 | 82 |
| COc1cc(C)c(N(C)C(=O)CN(C)C)cc1Nc1nc(Nc2cccc(F)c2C(N)=O)c2cc[nH]c2n1 | 84 |
| Nc1ncnc2occ(-c3ccc(NC(=O)Nc4cc(C(F)(F)F)ccc4F)cc3)c12 [GW770249X] | 80 |
| COc1ccccc1-c1cc(/C=C2\C(=O)Nc3ncc(Br)cc32)cc(Br)c1O [GW442130X] | 80 |

----------
Test system: RPS6KA4(Kin.Dom.2-C-terminal)
Stated Conditions: Compound Concentration (nM):1000
Below, each of the compounds is paired with its reported Percent Control value.

| Compound | Percent Control [%] |
| --- | --- |
| Nc1ncnc2occ(-c3ccc(NC(=O)Nc4cc(C(F)(F)F)ccc4F)cc3)c12 [GW770249X] | 92 |
| Cl.O=C(O[C@H]1CN[C@H](C#Cc2cc3ncnc(Nc4ccc5c(cnn5Cc5ccccc5)c4)c3s2)C1)N1CCOCC1 [GSK200398A] | 88 |
| CN(C)CCNC(=O)Nc1ccc(N(C)c2ccnc(Nc3ccc(CS(C)(=O)=O)cc3)n2)cc1.Cl [GW830900A] | 88 |
| CN(C)c1cc2c(Nc3ccc4c(cnn4Cc4ccccc4)c3)ncnc2cn1 [GW282974X] | 89 |
| COc1cc2ncnc(Nc3ccc4c(cnn4Cc4ccccc4)c3)c2cc1OC.Cl [GW282449A] | 93 |
| COC(=O)Nc1nc2ccc(Oc3ccc(NC(=O)Nc4cc(C(F)(F)F)ccc4F)cc3)cc2s1.Cl [GW693917A] | 80 |
| COc1cc(N2CCN(C(C)C)CC2)ccc1Nc1nc(Nc2ccc(F)cc2C(=O)NC[C@@H](O)CO)c2cc[nH]c2n1 [GSK1392956A] | 33 |

----------
System: FGR
Stated Conditions: Compound Concentration (nM):1000
Recorded measurements of Percent Control, one per entry

| Molecule | Study Target | Percent Control / % |
| --- | --- | --- |
| CCn1c(-c2nonc2N)nc2c(C#CC(C)(C)O)nc(OCCNC)cc21.Cl | FGR | 100 |
| CN1CCN(C(=O)c2ccc(NC(=O)Nc3ccc(N(C)c4ccnc(Nc5ccc(CS(C)(=O)=O)cc5)n4)cc3)cc2)CC1.Cl [GW830263A] | FGR | 57 |
| Cl.O=C(O[C@H]1CN[C@H](C#Cc2cc3ncnc(Nc4ccc5c(cnn5Cc5ccccc5)c4)c3s2)C1)N1CCOCC1 [GSK200398A] | FGR | 96 |
| O=C(Nc1n[nH]c2nc(-c3ccc(O)cc3)c(Br)cc12)C1CC1 | FGR | 100 |
| COc1cccc(-c2c[nH]c3c(N/N=C/c4ccncc4)ncnc23)c1 [GW814408X] | FGR | 43 |

----------
System: MST4
Stated Conditions: Compound Concentration (nM):1000
# Percent Control per entry
Measured Metric: Percent Control

| Molecule | Measured Metric | Result |
| --- | --- | --- |
| Cl.O=S1CCN(Cc2ccc(-c3ccc4ncnc(Nc5ccc(OCc6ccccc6)c(F)c5)c4c3)o2)CC1 [GW576924A] | Percent Control | 100% |
| NS(=O)(=O)c1ccc(N/N=C2\C(=O)Nc3ccc(C(=O)NCc4ccncc4)cc32)cc1 [GW300657X] | Percent Control | 75% |
| COc1cc(N2CCN(C(C)C)CC2)ccc1Nc1nc(Nc2ccc(F)cc2C(=O)NC[C@@H](O)CO)c2cc[nH]c2n1 [GSK1392956A] | Percent Control | 94% |
| COc1cc2ncnc(Nc3ccc4c(cnn4Cc4ccccc4)c3)c2cc1OC.Cl [GW282449A] | Percent Control | 94% |
| COc1cccc(-n2ncc3c(N/N=C/c4ccncc4)ncnc32)c1 [GW784752X] | Percent Control | 74% |
| COc1ccc2c(-c3ccnc(Nc4cccc(OC(F)(F)F)c4)n3)cnn2n1 [GW810372X] | Percent Control | 60% |

----------
# maps each entry to its Percent Control
Tested on: DCAMKL1
Construct: gene DCLK1
Stated Conditions: Compound Concentration (nM):1000

| Compound | Study Target | Percent Control |
| --- | --- | --- |
| COc1cc(C=NNc2ncnc3c2cnn3-c2ccccc2)ccc1O [GW513184X] | DCAMKL1 | 90% |
| Cl.c1ccc(Cc2nc3ccc(Nc4ncnc5ccccc45)cc3[nH]2)cc1 [GR269666A] | DCAMKL1 | 90% |
| O=C(Nc1n[nH]c2nc(-c3ccc(O)cc3)c(Br)cc12)C1CC1 | DCAMKL1 | 89% |
| CC1=C(C(=O)Nc2ccc3[nH]ncc3c2)C(c2ccc3ccccc3c2)CC(=O)N1 (stereo not shown) [GSK270822A] | DCAMKL1 | 90% |

----------
Recorded Percent Control for the following compounds
Tested on: PKNB(M.tuberculosis)
Stated Conditions: 1 µM
Measured Metric: Percent Control (%)

| Compound | Measured Metric | Numeric Result |
| --- | --- | --- |
| C/C(Nc1ccc(S(N)(=O)=O)cc1)=C1/C(=O)Nc2ccccc21 [GW335962X] | Percent Control | 83 |
| COc1cc(C=NNc2ncnc3c2cnn3-c2ccccc2)ccc1O [GW513184X] | Percent Control | 86 |
| NS(=O)(=O)c1ccc(N/N=C2\C(=O)Nc3ccc(Cl)cc32)cc1 [GW280670X] | Percent Control | 100 |
| COc1cc(C)c(N(C)C(=O)CN(C)C)cc1Nc1nc(Nc2cccc(F)c2C(N)=O)c2cc[nH]c2n1 | Percent Control | 63 |
| COc1ccc2[nH]c3c4[nH]c5ccc(OC)cc5c4c4c(c3c2c1)C(=O)NC4=O [GW296115X] | Percent Control | 67 |

----------
Tested on: CDK11
Construct: gene CDK19
Stated Conditions: Compound Concentration (nM):1000
Percent Control overview

| Compound | Percent Control, % |
| --- | --- |
| CCn1c(-c2nonc2N)nc2c(C#CC(C)(C)O)nc(OCCNC)cc21.Cl | 100 |
| CN(C)CCNC(=O)Nc1ccc(N(C)c2ccnc(Nc3ccc(CS(C)(=O)=O)cc3)n2)cc1.Cl [GW830900A] | 100 |
| COc1ccc2c(-c3ccnc(Nc4cccc(OC(F)(F)F)c4)n3)cnn2n1 [GW810372X] | 100 |
| NS(=O)(=O)c1ccc(Nc2ncc(-c3ccccc3)o2)cc1 [GW572399X] | 100 |
| Nc1ncnc2occ(-c3ccc(NC(=O)Nc4cc(C(F)(F)F)ccc4F)cc3)c12 [GW770249X] | 0 |
| Cl.O=C(Nc1ccc(Oc2ccc3[nH]c(NC(=O)c4ccccc4)nc3c2)cc1)Nc1cc(C(F)(F)F)ccc1F [GW709042A] | 23 |
| COc1ccc2cc(-c3c(-c4ccncc4)nc(-c4ccc(S(C)(=O)=O)cc4C)n3C)ccc2c1 | 100 |

----------
Test system: NEK1
Stated Conditions: Compound Concentration (nM):1000
Property: Percent Control; scope: individual molecules

| Molecule | Study Target | Percent Control |
| --- | --- | --- |
| CN(C)CCNC(=O)Nc1ccc(N(C)c2ccnc(Nc3ccc(CS(C)(=O)=O)cc3)n2)cc1.Cl [GW830900A] | NEK1 | 92% |
| Cl.O=C(Nc1ccc(Oc2ccc3[nH]c(NC(=O)c4ccccc4)nc3c2)cc1)Nc1cc(C(F)(F)F)ccc1F [GW709042A] | NEK1 | 89% |
| CCS(=O)(=O)c1ccc(OC)c(Nc2ncc(-c3cccc(OC)c3)o2)c1 [GW580509X] | NEK1 | 98% |
| Cl.O=C(Nc1ccc(Oc2ccc3[nH]c(NC(=O)c4ccco4)nc3c2)cc1)Nc1cc(C(F)(F)F)ccc1F [GW683134A] | NEK1 | 80% |
| Cl.O=C(O[C@H]1CN[C@H](C#Cc2cc3ncnc(Nc4ccc5c(cnn5Cc5ccccc5)c4)c3s2)C1)N1CCOCC1 [GSK200398A] | NEK1 | 68% |
| C[C@@H](Oc1cc(-n2cnc3ccc(OC4CCN(C)CC4)cc32)sc1C(N)=O)c1ccccc1Cl [GSK579289A] | NEK1 | 60% |

Source: paper PMC7826789
